The reported measurements were obtained from patent US20260042764A1.

biological target: Avi-KRAS G12V (1-169) GppNHp/RAF1 RBD-3xFLAG (52-151) (Homo sapiens, UniProt P01116, G12V); construct: Avi-KRAS G12V (1-169); experiment: Raf1-KRAS G12V-GppNHP disruption HTRF assay (Biological Example 1); type: binding; conditions: KRAS G12V, GppNHp-loaded; Table 11
Sequence (P01116 1-169 isoform P01116-2 G12V): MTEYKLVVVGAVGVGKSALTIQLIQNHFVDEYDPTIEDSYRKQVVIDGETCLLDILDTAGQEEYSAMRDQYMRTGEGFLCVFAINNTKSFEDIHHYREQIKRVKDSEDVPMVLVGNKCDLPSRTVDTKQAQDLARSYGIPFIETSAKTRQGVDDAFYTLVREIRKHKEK
pIC50: −log10 of the molar value.
Examples of molecules with documented pIC50 follow.

Tell us which pIC50 value is on record for C[C@@H](CO)N(C)c1nc(OC[C@@]23CCCN2C[C@H](F)C3)nc2c(F)c(-c3ccc(F)c4sc(N)c(C#N)c34)c(C(F)(F)F)cc12
6.00 to 7.00

Tell us which pIC50 value is on record for CN(c1nc(OC[C@@]23CCCN2C[C@H](F)C3)nc2c(F)c(-c3ccc(F)c4sc(N)c(C#N)c34)c(Cl)cc12)[C@H]1C[C@@H](O)C1
6.00 to 7.00

Tell us which pIC50 value is on record for CC1(O)COCCN(c2nc(OC[C@@]34CCCN3C[C@H](F)C4)nc3c(F)c(-c4ccc(F)c5sc(N)c(C#N)c45)c(C(F)(F)F)cc23)C1 (stereo partly drawn)
6.00 to 7.00

====

Examples of compounds with documented pIC50 follow.
biological target: Avi-KRAS WT (1-169) GppNHp/RAF1 RBD-3xFLAG (52-151) (Homo sapiens, UniProt P01116); construct: Avi-KRAS WT (1-169); experiment: Raf1-KRAS WT-GppNHP disruption HTRF assay (Biological Example 1); type: binding; details: KRAS WT, GppNHp-loaded; Table 11
Sequence (P01116 1-169 isoform P01116-2): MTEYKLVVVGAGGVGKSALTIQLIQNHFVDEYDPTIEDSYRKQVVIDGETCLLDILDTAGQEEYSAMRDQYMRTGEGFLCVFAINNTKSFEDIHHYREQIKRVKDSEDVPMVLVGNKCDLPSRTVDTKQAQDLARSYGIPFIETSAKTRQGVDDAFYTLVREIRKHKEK
pIC50: −log10 of the molar value.

# annotated cases, reported pIC50 shown
- COMPOUND: "N#Cc1c(N)sc2c(F)ccc(-c3c(C(F)(F)F)cc4c(N5CCC6(CC5)CC(O)C6)nc(OC[C@@]56CCCN5C[C@H](F)C6)nc4c3F)c12 [Compound 45]"
  SUBJECT_OF_TEST: "Avi-KRAS WT (1-169) GppNHp/RAF1 RBD-3xFLAG (52-151) (Homo sapiens, UniProt P01116)"
  ASSAY_ENDPOINT: "pIC50"
  RESULT_VALUE: "6.00 to 7.00"
- COMPOUND: "C[C@@]1(O)CCCN(c2nc(OC[C@@]34CCCN3C[C@H](F)C4)nc3c(F)c(-c4ccc(F)c5sc(N)c(C#N)c45)c(C(F)(F)F)cc23)C1 [Compound 224]"
  SUBJECT_OF_TEST: "Avi-KRAS WT (1-169) GppNHp/RAF1 RBD-3xFLAG (52-151) (Homo sapiens, UniProt P01116)"
  ASSAY_ENDPOINT: "pIC50"
  RESULT_VALUE: "6.00 to 7.00"

Pending compound:
Tell us which pIC50 value is on record for CC(=O)N1C[C@@H](N(C)c2nc(OC[C@@]34CCCN3C[C@H](F)C4)nc3c(F)c(-c4ccc(F)c5sc(N)c(C#N)c45)c(C(F)(F)F)cc23)C[C@H]1CO [Compound 247]
6.00 to 7.00

====

target: Avi-KRAS G12C (2-169) GTP/RAF1 RBD-3xFLAG (51-131) (Homo sapiens, UniProt P01116, G12C); construct: Avi-KRAS G12C (2-169); assay: Raf1-KRAS G12C-GTP disruption HTRF assay (Biological Example 3); assay type: binding; conditions: KRAS G12C, GTP-loaded
Sequence (P01116 2-169 isoform P01116-2 G12C): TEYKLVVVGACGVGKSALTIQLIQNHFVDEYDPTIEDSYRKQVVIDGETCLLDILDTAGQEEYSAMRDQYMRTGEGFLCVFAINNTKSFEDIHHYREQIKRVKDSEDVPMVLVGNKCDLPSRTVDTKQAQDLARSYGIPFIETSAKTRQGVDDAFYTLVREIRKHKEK
ASSAY_ENDPOINT: IC50

# annotated cases, reported IC50 shown
- COMPOUND: "C/C=C/C(=O)N1C[C@@H](N(CC)c2nc(OC[C@@]34CCCN3C[C@H](F)C4)nc3c(F)c(-c4ccc(F)c5sc(N)c(C#N)c45)c(C(F)(F)F)cc23)C[C@@H]1COC (atropisomer, axis not shown)"
  IC50: "100 to 1000 nM"
- COMPOUND: "N#Cc1c(N)sc2c(F)ccc(-c3c(C(F)(F)F)cc4c(N5CCc6ccncc6C5)nc(OC[C@@]56CCCN5C[C@H](F)C6)nc4c3F)c12"
  IC50: "> 10000 nM"
- COMPOUND: "CCN(c1nc(OC[C@@]23CCCN2C[C@H](F)C3)nc2c(F)c(-c3ccc(F)c4sc(N)c(C#N)c34)c(C(F)(F)F)cc12)[C@H]1C[C@H]2CC(C)(C)C(=O)N2C1 (atropisomer, axis not shown)"
  IC50: "100 to 1000 nM"

Tell us which IC50 value is on record for CN(Cc1ccccc1)c1nc(OC[C@@]23CCCN2C[C@H](F)C3)nc2c(F)c(-c3ccc(F)c4sc(N)c(C#N)c34)c(C(F)(F)F)cc12 (atropisomer, axis not shown)
> 10000 nM

Tell us which IC50 value is on record for CCN(c1nc(OC[C@@]23CCCN2C[C@H](F)C3)nc2c(F)c(-c3ccc(F)c4sc(N)c(C#N)c34)c(C(F)(F)F)cc12)[C@H]1C[C@H]2CN(C)C(=O)N2C1 (atropisomer, axis not shown; (aS))
≤ 100 nM

Tell us which IC50 value is on record for CCN(c1nc(OCC23CCCN2CC(F)C3)nc2c(F)c(-c3ccc(F)c4sc(N)c(C#N)c34)c(C(F)(F)F)cc12)C(C)c1cccnc1 (stereo not drawn)
> 10000 nM

Tell us which IC50 value is on record for CCN(c1nc(OCC23CCCN2CC(F)C3)nc2c(F)c(-c3ccc(F)c4sc(N)c(C#N)c34)c(C(F)(F)F)cc12)C1CC(C)N(C(=O)C2CC2(F)F)C1 (stereo not drawn)
100 to 1000 nM

Tell us which IC50 value is on record for CCN1C[C@@H](N(C)c2nc(OC[C@@]34CCCN3C[C@H](F)C4)nc3c(F)c(-c4ccc(F)c5sc(N)c(C#N)c45)c(C(F)(F)F)cc23)CC1=O (atropisomer, axis not shown)
100 to 1000 nM

Tell us which IC50 value is on record for CCN(c1nc(OC[C@@]23CCCN2C[C@H](F)C3)nc2c(F)c(-c3ccc(F)c4sc(N)c(C#N)c34)c(C(F)(F)F)cc12)[C@H]1CCN(C(=O)C2CN(C(C)=O)C2)C1 (atropisomer, axis not shown)
≤ 100 nM

Tell us which IC50 value is on record for CCN(c1nc(OC[C@@]23CCCN2C[C@H](F)C3)nc2c(F)c(-c3ccc(F)c4sc(N)c(C#N)c34)c(C(F)(F)F)cc12)[C@H]1C[C@H](C(=O)N(C)C)C1 (atropisomer, axis not shown)
100 to 1000 nM

Tell us which IC50 value is on record for CCN(c1nc(OC[C@@]23CCCN2C[C@H](F)C3)nc2c(F)c(-c3ccc(F)c4sc(N)c(C#N)c34)c(C(F)(F)F)cc12)[C@H]1CCN(C(=O)C(CF)CF)C1 (atropisomer, axis not shown)
100 to 1000 nM

Tell us which IC50 value is on record for CCN(c1nc(OC[C@@]23CCCN2C[C@H](F)C3)nc2c(F)c(-c3ccc(F)c4sc(N)c(C#N)c34)c(C(F)(F)F)cc12)[C@H]1C[C@H](C)N(C(=O)C2COC2)C1 (atropisomer, axis not shown)
100 to 1000 nM
